Listed here: items and their measured RORγt (FL) Reporter Assay B or C, % inhibition (value marked *).
target: full-length human RORγt (Homo sapiens (Human)); experiment: RORγt (full-length human) reporter assay, Conditions B or C; format: cell-based; settings: Conditions B or C; marked *: footnote not given
Value Kind: RORγt (FL) Reporter Assay B or C, % inhibition (value marked *)

>>> measured_value("C[C@H](Nc1cc(C(F)F)c(-c2sc(C(=O)N[C@H](C)C(C)(C)O)nc2C(=O)N2CCC[C@@H]2C)cn1)C(F)(F)F")
"104* %"
>>> measured_value("C[C@H](Nc1cc(C(F)F)c(-c2sc(C(=O)N[C@H](C)C(C)(C)O)nc2C(=O)N2CC(F)(F)C[C@@H]2C)cn1)C(F)(F)F")
"102* %"
>>> measured_value("C[C@H](Nc1cc(C(F)(F)F)c(-c2sc(C(=O)N[C@H](C)C(C)(C)O)nc2C(=O)N2CC(F)(F)C[C@@H]2C)cn1)C1CC1")
"97* %"
>>> measured_value("CC[C@@H](Nc1cc(C(F)(F)F)c(-c2sc(C(=O)NCC(C)(C)O)nc2C(=O)N2CCC[C@@H]2C)cn1)C1CC1 (relative stereo)")
"104* %"

----------
molecular target: full-length human RORγt (Homo sapiens (Human), UniProt P51449); assay: RORγt (full-length human) reporter assay, Conditions B or C; format: cell-based; settings: at 3 μM compound concentration; read-out: RORγt (FL) Reporter Assay B or C, % inhibition
Sequence (P51449 other isoform, or with tags, fused parts or gaps): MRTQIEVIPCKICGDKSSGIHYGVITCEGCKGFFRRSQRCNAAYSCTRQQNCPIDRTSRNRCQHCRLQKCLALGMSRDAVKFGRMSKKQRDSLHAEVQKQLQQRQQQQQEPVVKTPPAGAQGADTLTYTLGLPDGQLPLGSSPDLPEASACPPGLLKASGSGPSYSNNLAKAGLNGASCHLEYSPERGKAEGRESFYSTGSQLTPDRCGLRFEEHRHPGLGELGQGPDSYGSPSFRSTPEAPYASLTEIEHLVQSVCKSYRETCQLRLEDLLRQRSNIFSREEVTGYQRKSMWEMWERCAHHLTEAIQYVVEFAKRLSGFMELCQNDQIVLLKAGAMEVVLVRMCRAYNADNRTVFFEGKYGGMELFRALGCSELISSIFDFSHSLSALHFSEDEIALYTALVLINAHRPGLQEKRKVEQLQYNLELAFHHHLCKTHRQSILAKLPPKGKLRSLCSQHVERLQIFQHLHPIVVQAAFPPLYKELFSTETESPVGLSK
Listed here: items and their measured inhibition at 3 µM.
Value Kind: inhibition at 3 µM (%)

>>> measured_value("C[C@H]1CCCN1C(=O)c1nc(C(=O)N[C@H]2CC[C@@H](O)C2)sc1-c1cnc(NC(C)(C)C)cc1C(F)(F)F [Example 367]")
99
>>> measured_value("C[C@H]1CCCN1C(=O)c1nc(C(=O)NC2CCS(=O)(=O)CC2)sc1-c1cnc(NC2(C)CCC2)cc1C(F)F [Example 324]")
93
>>> measured_value("CC[C@H](CO)NC(=O)c1nc(C(=O)N2CCC[C@@H]2C)c(-c2cnc(N[C@@H](C)C(F)(F)F)cc2C(F)F)s1 [Example 408]")
83
>>> measured_value("CC[C@H](Nc1cc(C(F)F)c(-c2sc(C(=O)NC3CCOCC3)nc2C(=O)N2CC(F)(F)C[C@@H]2C)cn1)C(F)(F)F [Example 422]")
101
>>> measured_value("C[C@H]1CCCN1C(=O)c1nc(C(=O)N[C@@H]2CCOC2)sc1-c1cnc(NC(C)(C)C)cc1C(F)(F)F [Example 373]")
122
>>> measured_value("CC[C@H](Nc1cc(C(F)F)c(-c2sc(C(=O)NC3CCCC3O)nc2C(=O)N2CCC[C@@H]2C)cn1)C(F)(F)F (stereo partly drawn) [Example 252]")
106
>>> measured_value("C[C@H]1CCCN1C(=O)c1nc(C(=O)NC2CCC2O)sc1-c1cnc(NC(C)(C)C)cc1C(F)(F)F (stereo partly drawn) [Example 369]")
106
>>> measured_value("C[C@H]1CCCN1C(=O)c1nc(C(=O)NCC(O)(C(F)(F)F)C(F)(F)F)sc1-c1cnc(NC(C)(C)C)cc1C(F)(F)F [Example 271]")
106
>>> measured_value("C[C@H]1CCCN1C(=O)c1nc(C(=O)NC2CCS(=O)(=O)CC2)sc1-c1cnc(NC(C)(C)C)cc1C(F)(F)F [Example 254]")
107
>>> measured_value("C[C@H](Nc1cc(C(F)F)c(-c2sc(C(=O)N[C@H]3CC[C@H](O)C3)nc2C(=O)N2CCC[C@@H]2C)cn1)C(F)(F)F [Example 288]")
103
>>> measured_value("CC(C)[C@H](C)Nc1cc(C(F)F)c(-c2sc(C(=O)NCC(C)(C)O)nc2C(=O)N2CCC[C@@H]2C)cn1 [Example 300]")
100
>>> measured_value("CC[C@@H](CO)NC(=O)c1nc(C(=O)N2CCC[C@@H]2C)c(-c2cnc(N[C@@H](C)C(F)(F)F)cc2C(F)F)s1 [Example 407]")
100
>>> measured_value("C[C@H](NC(=O)c1nc(C(=O)N2CC(F)(F)C[C@@H]2C)c(-c2cnc(N[C@@H](C3CC3)C(F)(F)F)cc2C(F)F)s1)C(C)(C)O [Example 313]")
106
>>> measured_value("C[C@H]1CCCN1C(=O)c1nc(C(=O)N[C@H]2C[C@H](O)C2)sc1-c1cnc(N[C@H](C2CC2)C(F)(F)F)cc1C(F)F [Example 320]")
98
>>> measured_value("CC[C@H](Nc1cc(C(F)F)c(-c2sc(C(=O)N3CC4CCC(C3)O4)nc2C(=O)N2CCC[C@@H]2C)cn1)C(F)(F)F [Example 378]")
109
>>> measured_value("C[C@H]1CCCN1C(=O)c1nc(C(=O)N[C@H](C)C(C)(C)O)sc1-c1cnc(N[C@@H](C2CC2)C(F)(F)F)cc1C(F)F [Example 311]")
107
>>> measured_value("C[C@H]1CCCN1C(=O)c1nc(C(=O)NCC(C)(O)C(F)(F)F)sc1-c1cnc(NC(C)(C)C)cc1C(F)(F)F (stereo partly drawn) [Example 357]")
106
>>> measured_value("CC[C@H](Nc1cc(C(F)F)c(-c2sc(C(=O)N3CC4CC(C3)O4)nc2C(=O)N2CCC[C@@H]2C)cn1)C(F)(F)F [Example 392]")
102
>>> measured_value("CC[C@H](Nc1cc(C(F)F)c(-c2sc(C(=O)N[C@@H]3CC[C@@H]3O)nc2C(=O)N2CCC[C@@H]2C)cn1)C(F)(F)F (relative stereo) [Example 381]")
107
>>> measured_value("C[C@H](Nc1cc(C(F)F)c(-c2sc(C(=O)NCC(C)(C)O)nc2C(=O)N2CCC[C@@H]2C)cn1)C(C)(C)C [Example 299]")
103
>>> measured_value("C[C@H]1CC(F)(F)CN1C(=O)c1nc(C(=O)NC2CCS(=O)(=O)CC2)sc1-c1cnc(NC(C)(C)C)cc1C(F)F [Example 431]")
107

----------
target: full-length human RORγt (Homo sapiens (Human), UniProt P51449); experiment: RORγt (full-length human) reporter assay, Conditions B or C; format: cell-based; details: Conditions B or C; marked *: footnote not given
Value Kind: RORγt (FL) Reporter Assay B or C, % inhibition (value marked *)

>>> measured_value("CC[C@H](Nc1cc(C(F)(F)F)c(-c2sc(C(=O)NCC(C)(C)O)nc2C(=O)N2CC(F)(F)C[C@@H]2C)cn1)C(F)(F)F [Example 102]")
"116* %"
>>> measured_value("CC[C@H](Nc1cc(C(F)F)c(-c2sc(C(=O)N[C@H]3CCC[C@@H]3O)nc2C(=O)N2C3CCC2CC3)cn1)C(F)(F)F [Example 210]")
"105* %"
>>> measured_value("C[C@H]1CCCN1C(=O)c1nc(C(=O)NCC(C)(C)O)sc1-c1cnc(NC(C)(C)C)cc1C(F)(F)F [Example 52]")
"106* %"
>>> measured_value("CC[C@H](Nc1cc(C(F)(F)F)c(-c2sc(C(=O)NCC(C)(C)O)nc2C(=O)N2CCC[C@@H]2C)cn1)C1CC1 (relative stereo) [Example 128]")
"107* %"
>>> measured_value("C[C@H]1CCCCN1C(=O)c1nc(C(=O)NCC(C)(C)O)sc1-c1cnc(NC(C)(C)C2CC2)cc1C(F)F [Example 88]")
"138* %"
>>> measured_value("C[C@H]1CCCN1C(=O)c1nc(C(=O)NCC2(O)CCC2)sc1-c1cnc(NC2CCCC2)cc1C(F)F [Example 71]")
"111* %"

----------
target: full-length human RORγt (Homo sapiens (Human)); experiment: RORγt (full-length human) reporter assay, Conditions A; type: cell-based; conditions: read-out: RORγt (FL) Reporter Assay A, % inhibition @ 6 μM; Conditions A; @ 6 μM
Value Kind: inhibition at 6 µM

>>> measured_value("CC(C)(O)CNC(=O)c1nc(C(=O)N2CCC(F)CC2)c(-c2cnc(NC3CCC(F)(F)CC3)cc2C(F)(F)F)s1")
"106%"
>>> measured_value("CC(C)(O)CNC(=O)c1nc(C(=O)N2CCC(F)CC2)c(-c2cnc(NC3CCCCC3)cc2C2CC2)s1")
"96%"
>>> measured_value("CC(C)(O)CNC(=O)c1nc(C(=O)N2CCC(F)CC2)c(-c2cnc(NC3CCCCC3)c(C#N)c2)s1")
"93%"
>>> measured_value("C[C@H]1CCCN1C(=O)c1nc(C(=O)NCC(C)(C)O)sc1-c1cnc(NC2CCCCC2)cc1C(F)(F)F")
"99%"
>>> measured_value("CC(C)(O)CNC(=O)c1nc(C(=O)N2CCC(F)CC2)c(-c2cnc(NC3CCC(F)(F)C3)cc2C(F)(F)F)s1 (centres unmarked)")
"110%"

// provenance: patent US10975068B2
